system-under-test: Human plasma kallikrein (Homo sapiens)
Construct: yields a heavy chain (371 amino acids) and a light chain (248 amino acids)
experiment: Kallikrein Assay (fluorogenic substrate hydrolysis, AFC release)
condition-details: purified Human plasma kallikrein 0.5 nM; substrate Acetyl-K—P—R-AFC 100 mM; 50 mM HEPES pH 7.4
# note: boundary value 5 nM maps to criterion not met; IC50 below it maps to criterion met

# compound, class-assignment
data = [
    ("Cc1cc(N2C[C@H]3C[C@H]3C2=O)nnc1C(C)n1cc(C(=O)N[C@H]2C[C@@H](c3cc(Cl)ccc3C#N)C2)nn1 (single isomer, unassigned) [Example 118]", "criterion met"),
    ("Cc1cc(N2C[C@H]3C[C@H]3C2=O)ncc1[C@H](C)c1cc(C(=O)N[C@H]2C[C@@H](c3cc(Cl)ccc3C#N)C2)n(C)n1 [Example 173]", "criterion met"),
    ("Cc1c([C@H](C)n2cc(C(=O)NC3CC(c4cccc(Cl)c4)C3O)nn2)cnc(N2C[C@H]3C[C@H]3C2=O)c1C (single isomer, unassigned) [Example 152]", "criterion not met"),
    ("Cc1ccc(C#N)c([C@H]2C[C@@H](NC(=O)c3cnn(C(C)c4cnc(N5C[C@H]6C[C@H]6C5=O)c(C)n4)c3)C2)n1 (single isomer, unassigned) [Example 51]", "criterion met"),
    ("Cc1cc([C@@H](C)n2cc(C(=O)N[C@H]3C[C@@H](c4cc(Cl)ccc4C#N)C3)nn2)cnc1N1C[C@H]2C[C@H]2C1=O (single isomer, unassigned) [Example 55]", "criterion met"),
]

====

The entries below come with measured IC50 values attached.
system-under-test: Human plasma kallikrein (Homo sapiens, UniProt P03952)
Construct: yields a heavy chain (371 amino acids) and a light chain (248 amino acids)
Sequence (P03952 391-638 limits assumed): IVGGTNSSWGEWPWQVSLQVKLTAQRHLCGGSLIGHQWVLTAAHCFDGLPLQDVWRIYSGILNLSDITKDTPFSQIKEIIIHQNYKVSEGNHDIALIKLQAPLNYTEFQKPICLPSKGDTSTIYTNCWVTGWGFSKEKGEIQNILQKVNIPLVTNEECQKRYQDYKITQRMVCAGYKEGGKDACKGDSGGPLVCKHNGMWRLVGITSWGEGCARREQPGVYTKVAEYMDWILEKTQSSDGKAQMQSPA
Sequence (P03952 20-390 partner limits assumed): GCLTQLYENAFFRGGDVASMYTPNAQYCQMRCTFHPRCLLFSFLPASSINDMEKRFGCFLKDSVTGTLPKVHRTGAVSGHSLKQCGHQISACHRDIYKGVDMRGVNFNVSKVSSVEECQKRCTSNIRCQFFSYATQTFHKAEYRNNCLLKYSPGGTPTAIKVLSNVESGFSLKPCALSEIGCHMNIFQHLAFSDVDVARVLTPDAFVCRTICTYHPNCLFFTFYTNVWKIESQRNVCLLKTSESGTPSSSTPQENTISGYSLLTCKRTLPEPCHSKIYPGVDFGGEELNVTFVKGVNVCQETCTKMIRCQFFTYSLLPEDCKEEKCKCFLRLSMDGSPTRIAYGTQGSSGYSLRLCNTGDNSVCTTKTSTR
experiment: Kallikrein Assay (fluorogenic substrate hydrolysis, AFC release)
condition-details: purified Human plasma kallikrein 0.5 nM; substrate Acetyl-K—P—R-AFC 100 mM; 50 mM HEPES pH 7.4
attribute-measured: IC50

# compound, system-under-test, result
rows = [
    ("Cc1cc(N2C[C@H]3C[C@H]3C2=O)ncc1C(C)n1cc(C(=O)N[C@H]2C[C@@](C)(c3cc(Cl)ccc3C#N)C2)nn1 (single isomer, unassigned) [Example 64]", "Human plasma kallikrein (Homo sapiens, UniProt P03952)", "0.0159 µM"),
    ("N#Cc1ccc(Cl)cc1[C@H]1C[C@@H](NC(=O)c2cn(Cc3cnc(N4C[C@H]5C[C@H]5C4=O)nc3)nn2)C1", "Human plasma kallikrein (Homo sapiens, UniProt P03952)", "0.0161 µM"),
    ("CC(c1ncc(N2C[C@H]3C[C@H]3C2=O)cc1F)n1cc(C(=O)N[C@H]2C[C@@H](c3cc(Cl)ccc3C#N)C2)cn1 (single isomer, unassigned) [Example 26]", "Human plasma kallikrein (Homo sapiens, UniProt P03952)", "0.0037 µM"),
]

====

Collected IC50 values appear next to each entry.
system-under-test: Human plasma kallikrein (Homo sapiens)
Construct: yields a heavy chain (371 amino acids) and a light chain (248 amino acids)
experiment: Kallikrein Assay (fluorogenic substrate hydrolysis, AFC release)
condition-details: purified Human plasma kallikrein 0.5 nM; substrate Acetyl-K—P—R-AFC 100 mM; 50 mM HEPES pH 7.4
Experimental: The effectiveness of a compound of the present invention as an inhibitor of Kallikrein can be determined using a relevant purified serine protease, and an appropriate synthetic substrate. The rate of hydrolysis of the chromogenic or fluorogenic substrate by the relevant serine protease was measured both in the absence and presence of compounds of the present invention. […] A decrease in the rate of fluorescence change in the presence of inhibitor is indicative of enzyme inhibition. […]
attribute-measured: IC50 (nM)

# compound, numeric-value
rows = [
    ("CC(c1cnc(N2C[C@H]3C[C@H]3C2=O)c(F)c1)n1cc(C(=O)N[C@H]2C[C@@H](c3cc(Cl)ccc3C#N)C2)cn1 (single isomer, unassigned) [Example 22]", 1.5),
    ("Cc1c(C(C)n2cc(C(=O)NC3CC(c4cccc(Cl)c4)C3O)nn2)nnc(N2C[C@H]3C[C@H]3C2=O)c1C (single isomer, unassigned) [Example 132]", 279),
    ("[2H][C@]1(NC(=O)c2cn([C@@H](C)c3cnc(N4C[C@H]5C[C@H]5C4=O)cc3C)nn2)C[C@@H](c2cc(Cl)ccc2C#N)C1", 0.6),
    ("Cc1cc([C@H](C)n2cc(C(=O)N[C@H]3C[C@@H](c4cc(Cl)ccc4C#N)C3)cn2)cnc1N1C[C@H]2C[C@H]2C1=O (single isomer, unassigned)", 0.6),
    ("Cc1nc(N2C[C@H]3C[C@H]3C2=O)ncc1C(C)n1cc(C(=O)N[C@H]2C[C@@H](c3cc(Cl)ccc3C#N)C2)nn1 (single isomer, unassigned) [Example 80]", 105),
    ("CC(c1cnc(N2C[C@H]3C[C@H]3C2=O)nc1)n1cc(C(=O)N[C@H]2C[C@@H](c3cc(Cl)ccc3C#N)C2)c(C#N)n1 (single isomer, unassigned) [Example 17]", 5.5),
    ("Cc1c(C(C)n2cc(C(=O)NC3CC(c4cc(Cl)ccc4C#N)C3)cn2)cnc(N2C[C@H]3C[C@H]3C2=O)c1Cl (single isomer, unassigned)", 0.1),
    ("Cc1c(C(C)n2cc(C(=O)N[C@H]3C[C@@H](c4cc(Cl)ccc4C#N)C3)cn2)cnc(N2C[C@H]3C[C@H]3C2=O)c1C (single isomer, unassigned) [Example 39]", 0.3),
    ("COc1c(N2C[C@H]3C[C@H]3C2=O)ncc(C(C)n2cc(C(=O)N[C@H]3C[C@@H](c4cc(Cl)ccc4C#N)C3)cn2)c1C (single isomer, unassigned) [Example 44]", 0.2),
    ("Cc1cc([C@](C)(O)c2cc(C(=O)N[C@H]3C[C@@H](c4cc(Cl)ccc4C#N)C3)no2)cnc1N1C[C@H]2C[C@H]2C1=O (single isomer, unassigned)", 24),
    ("Cc1ccc(C#N)c([C@H]2C[C@@H](NC(=O)c3cn(C(C)c4cnc(N5C[C@H]6C[C@H]6C5=O)c(C)c4C)nn3)C2)c1 (single isomer, unassigned) [Example 113]", 0.4),
    ("Cc1nc(N2C[C@H]3C[C@H]3C2=O)ncc1C(C)n1cc(C(=O)NC2CC(C)(c3cc(Cl)ccc3C#N)C2)nn1 (single isomer, unassigned) [Example 83]", 39.5),
    ("CC(c1cnc(N2C[C@H]3C[C@H]3C2=O)c(N)c1)n1cc(C(=O)N[C@H]2C[C@@H](c3cc(Cl)ccc3C#N)C2)nn1 (single isomer, unassigned) [Example 108]", 6.5),
    ("N#Cc1ccc(Cl)cc1[C@H]1C[C@@H](NC(=O)c2cn(C(CO)c3ccc(N4C[C@H]5C[C@H]5C4=O)nc3)nn2)C1 (single isomer, unassigned)", 29.6),
    ("CC(c1cnc(N2C[C@H]3C[C@H]3C2=O)c(F)c1)n1cc(C(=O)N[C@H]2C[C@@H](c3cc(Cl)ccc3C#N)C2)nn1 (single isomer, unassigned) [Example 104]", 4.3),
    ("Cc1cc(N2C[C@H]3C[C@H]3C2=O)ncc1C(C)n1cc(C(=O)N[C@H]2C[C@@](C)(c3cc(Cl)ccc3C#N)C2)nn1 (single isomer, unassigned) [Example 65]", 0.3),
    ("Cc1cc(N2C[C@H]3C[C@H]3C2=O)ncc1C(C)n1cc(C(=O)N[C@H]2C[C@@H](c3cc(Cl)ccc3C(F)F)C2)nn1 (single isomer, unassigned) [Example 71]", 12.7),
    ("Cc1ccc(C#N)c([C@H]2C[C@@H](NC(=O)c3cnn(C(C)c4cnc(N5C[C@H]6C[C@H]6C5=O)cc4C)c3)C2)c1 (single isomer, unassigned)", 1.1),
    ("Cc1cc(N2C[C@H]3C[C@H]3C2=O)ncc1C(C)n1cc(C(=O)N[C@H]2C[C@@H](c3cc(Cl)ccn3)C2)nn1 (single isomer, unassigned) [Example 73]", 107),
    ("Cc1c(C(C)n2cc(C(=O)NC3CC(c4cccc(Cl)c4)C3O)nn2)cnc(N2C[C@H]3C[C@H]3C2=O)c1F (single isomer, unassigned) [Example 126]", 414),
    ("N#Cc1ccc(Cl)cc1[C@H]1C[C@@H](NC(=O)c2cnn(Cc3cnc(N4C[C@H]5C[C@H]5C4=O)nc3)c2)C1", 10.6),
]

====

system-under-test: Human plasma kallikrein (Homo sapiens)
Construct: yields a heavy chain (371 amino acids) and a light chain (248 amino acids)
experiment: Kallikrein Assay (fluorogenic substrate hydrolysis, AFC release)
condition-details: purified Human plasma kallikrein 0.5 nM; substrate Acetyl-K—P—R-AFC 100 mM; 50 mM HEPES pH 7.4
Listed below: log10(IC50) values for each entry.
attribute-measured: log10(IC50) (log10 of the value in nM)

# compound, system-under-test, log10(IC50)
data = [
    ("COc1cc(C(C)n2cc(C(=O)N[C@H]3C[C@@H](c4cc(Cl)ccc4C#N)C3)nn2)cnc1N1C[C@H]2C[C@H]2C1=O (single isomer, unassigned) [Example 101]", "Human plasma kallikrein (Homo sapiens)", 0.26),
    ("Cc1cc(N2C[C@H]3C[C@H]3C2=O)ncc1C(C)n1cc(C(=O)N[C@H]2C[C@@H](c3cc(Cl)ccc3C#N)C2)c(C)n1 (single isomer, unassigned) [Example 20]", "Human plasma kallikrein (Homo sapiens)", 0.32),
    ("Cc1c(C(C)n2cc(C(=O)N[C@H]3C[C@@H](c4cc(Cl)ccc4C#N)C3)nn2)cnc(N2C[C@H]3C[C@H]3C2=O)c1C (single isomer, unassigned) [Example 86]", "Human plasma kallikrein (Homo sapiens)", 0.04),
    ("COCc1nn(C(C)c2cnc(N3C[C@H]4C[C@H]4C3=O)cc2C)cc1C(=O)N[C@H]1C[C@@H](c2cc(Cl)ccc2C#N)C1 (single isomer, unassigned) [Example 50]", "Human plasma kallikrein (Homo sapiens)", 0.91),
    ("Cc1cc(N2C[C@H]3C[C@H]3C2=O)ncc1Cn1cc(C(=O)N[C@H]2C[C@@H](c3cc(Cl)ccc3C#N)C2)c(C(F)F)n1", "Human plasma kallikrein (Homo sapiens)", 0.04),
    ("Cc1cc(N2C[C@H]3C[C@H]3C2=O)ncc1Cn1cc(C(=O)N[C@H]2C[C@@H](c3cc(Cl)ccc3C#N)C2)cn1", "Human plasma kallikrein (Homo sapiens)", -0.15),
    ("Cc1nc(C(C)n2cc(C(=O)N[C@H]3C[C@@](C)(c4cc(Cl)ccc4C#N)C3)nn2)cnc1N1C[C@H]2C[C@H]2C1=O (single isomer, unassigned) [Example 110]", "Human plasma kallikrein (Homo sapiens)", 0.04),
    ("Cc1nc([C@@H](C)n2cc(C(=O)N[C@H]3C[C@@H](c4cc(Cl)ccc4C#N)C3)nn2)cnc1N1C[C@H]2CC2C1=O (single isomer, unassigned)", "Human plasma kallikrein (Homo sapiens)", 0.20),
    ("Cc1cc([C@@](C)(O)c2cc(C(=O)N[C@H]3C[C@@H](c4cc(Cl)ccc4C#N)C3)no2)cnc1N1C[C@H]2C[C@H]2C1=O (single isomer, unassigned)", "Human plasma kallikrein (Homo sapiens)", -0.15),
    ("Cc1cc(N2C[C@H]3C[C@H]3C2=O)ncc1C(C)n1cc(C(=O)N[C@H]2C[C@@H](c3cc(Cl)ccc3OC(F)F)C2)nn1 (single isomer, unassigned) [Example 70]", "Human plasma kallikrein (Homo sapiens)", 1.16),
    ("Cc1ccc(C#N)c([C@H]2C[C@@H](NC(=O)c3cn(C(C)c4nnc(N5C[C@H]6C[C@H]6C5=O)c(C)c4C)nn3)C2)n1 (single isomer, unassigned) [Example 128]", "Human plasma kallikrein (Homo sapiens)", 0.36),
]
